Reported pIC50 values are given for each entry in this list.
# target_or_system: T1, LILRB2-Fc fusion protein (human, UniProt Q8N423 22-460, limits assumed)
# T1 construct: not shown: Fc
# T1 sequence (Q8N423 22-460 limits assumed): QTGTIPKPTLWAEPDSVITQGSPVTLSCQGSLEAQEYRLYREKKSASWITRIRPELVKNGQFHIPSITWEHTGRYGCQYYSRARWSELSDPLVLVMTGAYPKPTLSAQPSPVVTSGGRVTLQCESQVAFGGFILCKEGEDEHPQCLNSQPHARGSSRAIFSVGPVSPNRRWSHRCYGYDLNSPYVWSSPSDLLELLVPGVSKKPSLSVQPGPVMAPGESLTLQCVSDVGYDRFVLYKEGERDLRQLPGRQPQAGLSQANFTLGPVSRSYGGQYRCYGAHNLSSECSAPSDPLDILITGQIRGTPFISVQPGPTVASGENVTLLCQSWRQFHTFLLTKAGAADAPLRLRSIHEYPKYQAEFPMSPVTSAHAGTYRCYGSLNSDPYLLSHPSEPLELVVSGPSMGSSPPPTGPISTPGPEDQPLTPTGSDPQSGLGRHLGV
# assay_explanation: ELISA, blockade of LILRB2-Fc binding to coated His-ANGPTL2
pIC50: −log10 of the molar value.
recorded_endpoint: pIC50

Antibody 14F1 (antibody, V domains shown, Mouse hybridoma mAb purified from ascites) VH: QVQLKESGPGLVAPSQSLSITCTVSGFSLTTYGVHWVRQPPGKGLEWLGVIWTGGSTNYNSALMSRLSIIKDNSKSQVFLKMNSLQTDDTAIYYCARGGYGHTMDYWGQGTSVTVSS VL: DIVMTQSHKFMSTSVGDRVSITCKASQDVSIAVAWYQQKPGQFPKLLIYSASYRYTGVPDRFTGGGSGTDFTFTISSVQAEDLAVYYCQQHYSTPFTFGSGTKLEIK = 9.03
Antibody 11B12 (antibody, V domains shown, Mouse hybridoma mAb purified from ascites) VH: DVQLQESGPGLVKPSQSLSLTCSVTGYSITSGYYWNWIRQFPGNKLEWMGYISYDGNNNYNPSLKNRISITRDTSKNQFFLKLNSVTTEDTATYYCAREESTMITTAWFAYWGQGTLVTVSA VL: DIQMTQSPASLSVSVGETVTITCRASENIYSNLAWYQQKQGKSPQLLVYGATNLADGVPSRFSGSGSGTQYSLKINSLQSEDFGSYFCQHFWDTPYTFGGGTKLEIK = 9.00
Antibody 9B6 (antibody, V domains shown, Mouse hybridoma mAb purified from ascites) VH: DVQLVESGGGLVQPGWSRILSCAASGFTFSNFGMHWVRQAPEKGLEWVAYISSGSGTIYYSDTVRGRFTISRDNPKNTLFLLMTSLRSEDTAMYYCTRSDYDGDWFFDVWGAGTTVTVSS VL: DIVMTQSHRFLSTSVGDRVTITCKASQDVTTAVAWCQQKPGQSPKLLIYSASFRYTGVPDRFTGSGSGTDFTFTINNVQAEDLALYYCQQHFTTPLTFGAGTKLELK = 9.00
Antibody 9H6 (antibody, V domains shown, Mouse hybridoma mAb purified from ascites) VH: EVQLQQSGAELVRPGALVKLSCKASGFNVKDYYMHWVKQRPEQGLEWIGWIDPKNGNGIYDPKFQGKASITADTSSNTAYLQLSSLTSEDTSVYYCARGDYFGSSYLFAYWGQGTLVTVSA VL: DIVMTQSHKFMSTSVGDRVSITCKASQDVSTAVAWYQQKPGQSPKLLIYSASYRYTGVPDRFTGSGSGTDFTFTISSVQAEDLAVYYCQQHYSTPWTFGGGAKLEIK = 9.02
